# System name: T1, mouse PTH1R overexpressed on CHO cells (mouse, UniProt P41593 27-591)
# T1 construct: whole, on cells; also called CHO mouse PTH1R; CHO Mouse PTHR
# T1 sequence (looked up): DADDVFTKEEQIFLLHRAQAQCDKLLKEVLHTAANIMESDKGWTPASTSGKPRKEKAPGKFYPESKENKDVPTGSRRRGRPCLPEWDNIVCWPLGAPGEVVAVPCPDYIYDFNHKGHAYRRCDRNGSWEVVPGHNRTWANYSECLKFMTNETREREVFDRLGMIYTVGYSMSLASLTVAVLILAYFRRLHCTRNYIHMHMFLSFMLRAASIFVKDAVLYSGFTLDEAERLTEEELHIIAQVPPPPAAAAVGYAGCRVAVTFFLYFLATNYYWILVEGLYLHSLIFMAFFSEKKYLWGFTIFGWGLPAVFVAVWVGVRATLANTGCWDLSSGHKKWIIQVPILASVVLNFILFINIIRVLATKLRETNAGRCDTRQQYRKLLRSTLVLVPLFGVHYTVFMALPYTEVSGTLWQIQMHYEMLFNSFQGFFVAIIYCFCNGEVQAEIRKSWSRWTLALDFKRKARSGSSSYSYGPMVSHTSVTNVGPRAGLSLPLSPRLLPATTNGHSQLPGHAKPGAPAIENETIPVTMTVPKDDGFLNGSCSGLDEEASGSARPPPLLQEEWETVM
# Method notes: flow cytometry on CHO cells, 24 hr at 4 C
Endpoint name: pEC50
// pEC50 here means minus log10 of the molar concentration (mol/L)

Task item: What pEC50 value was documented for this binder, XPA.85.335 (antibody, V domains shown, Light-chain-shuffled variant of XPA.85.017) VH: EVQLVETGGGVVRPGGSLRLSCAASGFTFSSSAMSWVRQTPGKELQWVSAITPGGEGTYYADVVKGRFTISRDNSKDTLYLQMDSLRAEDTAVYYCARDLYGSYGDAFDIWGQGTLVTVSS VL: QSVLTQPPSVSAAPGQRVTISCSGNTSNIGNNFVSWYQQLPGTAPKLLIYDDNKRPSGIPDRFSGSKSGTSATLGISGLQTGDEADYYCGTWDNSLNPPWVFGGGTQLTVL ?
Reply: 9.42

Let us examine a further case.
Task item: Sample XPA.85.339 (antibody, V domains shown, Light-chain-shuffled variant of XPA.85.017) VH: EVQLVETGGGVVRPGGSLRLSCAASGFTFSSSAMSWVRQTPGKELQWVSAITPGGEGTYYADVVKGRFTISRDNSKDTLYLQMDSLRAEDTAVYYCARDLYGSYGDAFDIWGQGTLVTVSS VL: SYELTQPPSVSVAPGQTATITCSGDRLGDKFISWYQQKPGQSPLLVIFEDNERPSRIPERFSGSNSGNSATLTISGTQAVDEADYYCQAWDSSWVFGGGTQLTVL — what was its pEC50?
Reply: 9.63

Hello, the source for this data is patent US20200317817A1, in case you need it.
